These measurements were taken from PubChem BioAssay (NCI).

- Test system: SK-MEL-28 melanoma
- method.description: NCI-60 one-dose screen, 48 h (100 = growth as untreated, 0 = no growth, -100 = all killed)
- condition.details: 10 µM unless noted
Compounds without any hit were thinned out: in the full panel of roughly 83,000, 20% have a hit.
recorded.endpoint: growth (%)

COc1ccc(C(=O)N2N=C(c3ccc(F)cc3)CC2c2cn(-c3ccccc3)nc2-c2ccccc2)cc1 (stereo not drawn); 71.9
CCCCCCCCCCCCC1CCC(=O)O1 (stereo not drawn); 96.4
O=c1oc2ccccc2cc1-c1cc(-c2ccc(-c3cc(-c4cc5ccccc5oc4=O)nc(-c4cc5ccccc5oc4=O)c3)cc2)cc(-c2cc3ccccc3oc2=O)n1; 108
CCNC(=O)c1ccc2c(c1)nc(-c1ccc(Cl)cc1)n2-c1cc(C(C)(C)C)[nH]n1; 41.6
CNC(=O)OC1C(O[C@H]2C[C@H]3[C@@H]4CC=C5C[C@@H](O)CC[C@]5(C)[C@H]4CC[C@]3(C)[C@H]2[C@H](C)C(=O)CCC(C)C)OCC(O)C1OC1OCC(O)C(O)C1OC(=O)c1ccc(OC)cc1 (stereo partly drawn); -53.3
Oc1c(C(Nc2cccc3ccccc23)c2ccccc2)ccc2cccnc12 (stereo not drawn); 57.6
O=C(Cc1ccc([N+](=O)[O-])cc1)Oc1ccccc1; 112
CC(=O)Nc1ccc(/C=N/N2CCCCCC2)cc1; 103

* * *

- Tested on: T-47D breast
- method.description: NCI-60 one-dose screen, 48 h
- condition.details: 10 µM unless noted
- Experimental: Growth inhibition of the T-47D human tumor cell line is measured as a screen for anti-cancer activity. Cells are grown in 96 well plates and exposed to the test compound for 48 hours. Compounds are tested at a single concentration, which is 10^-5 M for most compounds. The reported endpoint is percent growth (GI% or GIPRCNT), where numbers from 0 - 100% represent growth inhibition, and numbers from -100% - 0 represent cell death. For example, a value of 40 represents 60% growth inhibition. […]
The panel holds about 83,000 compounds, 20% with a hit somewhere; the sample as a whole holds those more often. Active and inactive are the calls of the source. Rule for the calls: active = growth percent below 10; inactive = the rest.
Outcomes: yes = active, no = inactive

CC(=O)CC(c1ccc([N+](=O)[O-])cc1)c1c(O)c2ccccc2oc1=O (stereo not given); no
Oc1c(C(Nc2cccc3ccccc23)c2ccccc2)ccc2cccnc12 (stereo not given); no
C=C1C[C@@]2(C)C(CC[C@]3(C)C2CC=C2C4CC(C)(C)C[C@@H](OC(=O)/C(C)=C\C)[C@]4(C(=O)O)CC[C@]23C)C(C)(C)C1=O (stereo not given in full); yes
COc1ccc2c(c1)OC1=C(C(=O)OC1)C2c1cc(OC)c2c(c1)OCCO2 (stereo not given); no
O=[N+]([O-])c1ccc(SSc2ccc([N+](=O)[O-])cc2Cl)c(Cl)c1; no

* * *

- Tested on: CCRF-CEM leukemia
- method.description: NCI-60 one-dose screen, 48 h
- condition.details: 10 µM unless noted
- Procedure: Growth inhibition of the CCRF-CEM human tumor cell line is measured as a screen for anti-cancer activity. Cells are grown in 96 well plates and exposed to the test compound for 48 hours. Compounds are tested at a single concentration, which is 10^-5 M for most compounds. The reported endpoint is percent growth (GI% or GIPRCNT), where numbers from 0 - 100% represent growth inhibition, and numbers from -100% - 0 represent cell death. For example, a value of 40 represents 60% growth inhibition. […]
Compounds without any hit were thinned out: in the full panel of roughly 83,000, 20% have a hit. Active and inactive are the calls of the source. The calls were made as follows: active = growth percent below 10; inactive = the rest.
Outcomes: Yes = active, No = inactive

COc1ccc(NC(=O)Cn2c(=O)sc3c(-c4ccc(Cl)cc4)cc(-c4ccc(Cl)cc4)nc32)cc1; No
COC(=O)c1ccc2c(c1)nc(-c1cc3ccccc3[nH]c1=O)n2-c1cc(C(C)(C)C)[nH]n1; No
C=C(c1ccc(C(=O)NCCCn2ccnc2)cc1)c1cc2c(cc1C)C(C)(C)CCC2(C)C; No
COc1ccccc1CNCCCN1C(=O)c2ccc3c4c(ccc(c24)C1=O)C(=O)N(CCCNCCCN)C3=O; Yes
Cn1c(-c2ccccc2)cc(=O)n1-c1ccccc1; No
O=C(CSc1nnc(Cc2ccccc2Nc2c(Cl)cccc2Cl)n1-c1ccccc1)N1N=C(c2ccc3ccccc3c2)CC1c1ccc(Cl)cc1 (stereo unspecified); No
CCCCCCCCCCCCNC(=O)N[C@H](C(=O)N[C@H]1/C=C/CCNC(=O)/C=C/[C@H](C)NC1=O)C(C)C; Yes
COc1cc(C2CC(c3ccc(Cl)cc3)=NN2C(C)=O)ccc1Oc1nc2c(c(=O)n(C)c(=O)n2C)n1C (stereo unspecified); No
Cc1nc(N)nc2c1CCC(Nc1ccccc1)S2 (stereo unspecified); No
CC1OC(n2c3ccccc3c3c4c(c5c6ccccc6[nH]c5c32)C(=O)N(CCN2CCOCC2)C4=O)CC(O)C1O (stereo unspecified); No
CN1C(=O)C(C(=O)/C=C/c2ccccc2C(=O)O)C(=O)N(C)C1=O; No
O=C1/C(=C/c2cc(F)cc(F)c2)Cc2cc(F)cc(F)c21; No
CC(=O)Nc1c(Br)cc2c(c1Br)Cc1cc(Br)ccc1-2; No
Cc1cc(N)cc(C)c1-c1c(Br)cc(N)cc1Br; Yes
CN(C)c1nc(-c2cccs2)n2nc(-c3ccc(Cl)cc3)cc2n1; No
COc1cccc(-c2cc(-c3cccs3)c(C#N)c(=O)[nH]2)c1; No
N=c1nc(N2CCCCC2)cc(N)n1O; No
CCSCC1CC(O)(c2ccccc2)C(c2ccccc2)C(c2ccc(F)cc2)O1 (stereo unspecified); Yes
COc1cccc(-c2nc3sccn3c2-c2ccnc(NCCN3CCCNS3(=O)=O)n2)c1; No
CC(C)CC(=O)C(CCc1ccccn1)C(C)C (stereo unspecified); No
CCCCCCCCCCCCCC; No
